Reference for the values: ChEMBL document CHEMBL1145053

test system: CHO; test: Inhibitory concentration on de novo synthesis of sphingomyelin (SM) by metabolic labeling of lipids in CHO cells with radioactive serine; assay type: functional, cell-based; conditions: Cricetulus griseus
OUTCOME MEASURE: pIC50
Just so you know, pIC50 here is -log10 of the concentration in molar units; reply with that number alone.

Request: Entry CCCCCCCCCCC(=O)N[C@@H](CO)C[C@@H](O)c1ccccc1 : reported pIC50 = ?
Result: 6.96

Request: For the compound shown here, CCCCCCCCCC(=O)N[C@@H](CO)C[C@@H](O)c1ccccc1 , give the reported pIC50.
Result: 6.52

Request: What value of measured pIC50 is listed for CCCCCCCCCCCC(=O)N[C@@H](CO)C[C@@H](O)c1ccccc1 ?
Result: 7.15

Request: What measured pIC50 goes with CCCCCCCCCCCCCC(=O)N[C@@H](CO)C[C@@H](O)c1ccccc1 ?
Result: 7.15

Request: Item CCCCCCCCCCCCC(=O)N[C@@H](CO)C[C@@H](O)c1ccccc1 has what recorded pIC50?
Result: 7.30

Request: // pIC50 lookup, key: CCCCCCCCCCCCCCC(=O)N[C@@H](CO)C[C@@H](O)c1ccccc1
Result: 7.05

###

test system: CHO; assay: Effect of compound on de novo synthesis of sphingomyelin (SM) by metabolic labeling of lipids in CHO cells with radioactive serine at 1 uM; format: functional, Cricetulus griseus
OUTCOME MEASURE: Sphingomyelin synthesis, % of control (%)
API: value field is a number in %; no unit string.

Request: GET /values?readout=Sphingomyelin synthesis, % of control&item= CCCCCCCCCCCC(=O)N[C@@H](COC)C[C@@H](O)c1ccccc1
Result: 79

Request: Name the reported Sphingomyelin synthesis, % of control value associated with the molecule CCCCCCCCCCCC(=O)N[C@@H](CO)C[C@@H](OC)c1ccccc1
Result: 119

Request: I have this molecule here, CCCCCCCCCCCC(=O)N[C@@H](CO)[C@@H](O)[C@H](O)c1ccccc1 , and I need its recorded Sphingomyelin synthesis, % of control.
Result: 40

Request: GET /values?readout=Sphingomyelin synthesis, % of control&item= CCCCCCCCCCCC(=O)N[C@@H](CO)[C@@H](O)[C@@H](O)c1ccccc1
Result: 57

Request: Requested field: Sphingomyelin synthesis, % of control. Item: CCCCCCCCCCCC(=O)N[C@@H](COC)C[C@@H](OC)c1ccccc1
Result: 130

Request: Given the molecule CCCCCCCCCCCC(=O)N[C@@H](CO)[C@H](O)[C@H](O)c1ccccc1 , what is its reported Sphingomyelin synthesis, % of control?
Result: 17

Request: Return reported Sphingomyelin synthesis, % of control; argument: CCCCCCCCCCCC(=O)N[C@@H](CO)[C@H](O)[C@@H](O)c1ccccc1
Result: 28

###

Please go through the items and note down their IC50.
tested on: CHO; assay: Inhibitory concentration on de novo synthesis of sphingomyelin (SM) by metabolic labeling of lipids in CHO cells with radioactive serine; type: functional, cell-based; conditions: Cricetulus griseus

Request: // query IC50 value for entry CCCCCCCCCCCCCCCC(=O)N[C@@H](CO)C[C@@H](O)c1ccccc1
Result: > 1000 nM

Request: Data request, read-out IC50, for CCCCCCCCCCCCCCCCCC(=O)N[C@@H](CO)C[C@@H](O)c1ccccc1
Result: > 1000 nM

Request: Can you look up the measured IC50 of CCCCCCCCCCCCCCCCC(=O)N[C@@H](CO)C[C@@H](O)c1ccccc1 for me?
Result: > 1000 nM
